// provenance: ChEMBL document CHEMBL4513216

# Test system: Plasmodium berghei
# Test protocol: Screen against P. berghei liver stage (PbLuc), transformed with Luciferase, at 10uM
# Type: functional, HepG2
# Measurement parameters: tested at 10 uM
Out of some 69,000 compounds screened, about 8,600 (12%) showed an effect of 50% or more. The entries come from a sample that favours strong results as a whole.
Metric: INHIBITION (%)
One number for each entry, in %.

Compound: CCc1cnc(N2C[C@@H]3C[C@H](C(=O)NC)[C@H](C2)O3)nc1
Test result: -45.8
//
Compound: NC(=O)C1CCN(Cc2ccc(S(=O)(=O)N3CCCC3)o2)CC1
Test result: 16.5

State recorded INHIBITION for all listed compounds.
1. CCc1nnsc1C(=O)N1CCCC(n2ccnc2C(C)C)C1 (configuration not stated)
2. COCCNC(=O)c1cc(S(=O)(=O)N2CCCCCC2)cs1
3. CNC(=O)[C@@H]1C[C@@H](NC(=O)CSc2ccccc2)CN1C1CCOCC1
4. CC(C)Nc1nc(-c2ccccc2)nc2c1CCN(C(=O)CC#N)CC2
5. CC(C)c1nccn1C1CCCN(C(=O)CCc2cnn(C)c2)C1 (configuration not stated)
6. CSCC(=O)N1CCCC(n2ccnc2C(C)C)C1 (configuration not stated)
7. Cc1ccc(C(NC(=O)Cc2nc3ncccn3n2)C2CC2)cc1 (configuration not stated)
8. CN(CC(=O)N1CCN(c2ccccn2)CC1)c1ccc(Cl)cn1

output:
1. 53.9
2. 45.6
3. 54.6
4. 72
5. 33.3
6. 45.4
7. 53.4
8. -36.6

Please state INHIBITION for every compound in the list that follows.
1. CC(=O)NCC(=O)N1CCc2nc(-c3ccccc3)nc(C)c2CC1
2. CN(Cc1nc(-c2ccco2)no1)C1CCCN(c2cccnn2)C1 (configuration not stated)
3. Cc1ccc(C(NC(=O)CN2CCc3c(ncn3C)C2)C2CC2)cc1 (configuration not stated)
4. CC(C)Nc1nc(-c2ccccc2)nc2c1CCN(C(=O)C1CC1)CC2
5. CCOCC1CN(C(=O)N2CCCC2)Cc2cnn(C)c21 (configuration not stated)
6. Cc1ccc(C(NC(=O)Cn2cc(C3CC3)nn2)C2CC2)cc1 (configuration not stated)
7. CCOCC1CN(C(=O)c2ccnnc2)Cc2cnn(CC)c21 (configuration not stated)
8. CC(=O)N1CCc2nc(-c3ccc(F)cc3)nc(NC(C)C)c2CC1

output:
[37.9, 20.1, 6.99, 73.8, 21.4, 8.08, 5.44, 64.7]

Provide INHIBITION for all items below, preserving their order.
1. O=C(C1CCOCC1)N1CCc2ncnc(-c3ccccc3)c2CC1
2. CNC(=O)[C@@H]1C[C@@H](NC(=O)Cc2cccs2)CN1C1CCOCC1
3. CC(C)c1nccn1C1CCCN(C(=O)c2nccnc2N)C1 (configuration not stated)
4. c1cnnc(N2CCCC(NCc3cccc4c3OCO4)C2)c1 (configuration not stated)
5. CN1C(=O)CC(c2ccncc2)C12CCN(c1ncccn1)CC2 (configuration not stated)
6. Cc1nc(-c2ccc(F)cc2)nc2c1CCN(C(=O)CN(C)C)CC2
7. c1cnnc(N2CCCC(NCc3cccc4c3OCCCO4)C2)c1 (configuration not stated)
8. CC(C)c1nccn1C1CCCN(C(=O)CCNS(C)(=O)=O)C1 (configuration not stated)

output:
1: -28.8; 2: 23.5; 3: 41.5; 4: 53.7; 5: 29.4; 6: 37.9; 7: 11.9; 8: 36.1

List reported INHIBITION for each of these compounds:
1. O=C(NC[C@H]1OC[C@@H]2CN(Cc3ccco3)CC[C@@H]21)c1cccnc1
2. COCCNC(=O)c1cc(S(=O)(=O)N2CCCC2)cs1
3. CC(C)c1nccn1C1CCCN(C(=O)CCc2cscn2)C1 (configuration not stated)
4. c1cnnc(N2CCCC(NCc3nc(-c4cccs4)no3)C2)c1 (configuration not stated)
5. CC1CCN(c2ccc(C(=O)N3CCCC3c3ccc[nH]3)cn2)CC1 (configuration not stated)

output:
8.03
10.3
62.1
60.3
27

Could you report INHIBITION for every entry in the following list?
1. CCn1ncc2c1C(COCC1CC1)CN(c1ccc(C)nn1)C2 (configuration not stated)
2. O=C(c1ccco1)N1Cc2cnn(CC3CC3)c2C(COCC2CC2)C1 (configuration not stated)
3. CS(=O)(=O)N1CCC(Cc2cnc(Br)cn2)C1 (configuration not stated)
4. COCCc1noc(CN(C)C2CCCN(c3cccnn3)C2)n1 (configuration not stated)
5. Cc1cc(C)n(C2CCCN(C(=O)Cc3cn4ccsc4n3)C2)n1 (configuration not stated)

output:
1: 86.2; 2: 50.4; 3: -29.9; 4: 9.54; 5: -15.52

I need INHIBITION for every entry listed below, if you could help.
1. Cc1nc2c(c(NCc3ccccc3)n1)CCN(C(=O)C1CCC1)CC2
2. COCC(=O)N1CCc2nc(NC(C)C)nc(NC(C)C)c2CC1
3. CCOCC(=O)N1CCc2nc(C)nc(NC(C)C)c2CC1
4. O=C(CCc1nnc(-c2ccccc2)o1)N1CCN(CC2CC2)CC1
5. Cc1cc(CNC2(c3ccccc3F)CC2)no1
6. CCOCC1CN(C(=O)c2cccn2C)Cc2cnn(CC3CC3)c21 (configuration not stated)

output:
[42.3, 48.4, 32.1, -17, -4.73, 19]
